Target: STAT6 protein (Homo sapiens, UniProt P42226)
Sequence (P42226 1-847): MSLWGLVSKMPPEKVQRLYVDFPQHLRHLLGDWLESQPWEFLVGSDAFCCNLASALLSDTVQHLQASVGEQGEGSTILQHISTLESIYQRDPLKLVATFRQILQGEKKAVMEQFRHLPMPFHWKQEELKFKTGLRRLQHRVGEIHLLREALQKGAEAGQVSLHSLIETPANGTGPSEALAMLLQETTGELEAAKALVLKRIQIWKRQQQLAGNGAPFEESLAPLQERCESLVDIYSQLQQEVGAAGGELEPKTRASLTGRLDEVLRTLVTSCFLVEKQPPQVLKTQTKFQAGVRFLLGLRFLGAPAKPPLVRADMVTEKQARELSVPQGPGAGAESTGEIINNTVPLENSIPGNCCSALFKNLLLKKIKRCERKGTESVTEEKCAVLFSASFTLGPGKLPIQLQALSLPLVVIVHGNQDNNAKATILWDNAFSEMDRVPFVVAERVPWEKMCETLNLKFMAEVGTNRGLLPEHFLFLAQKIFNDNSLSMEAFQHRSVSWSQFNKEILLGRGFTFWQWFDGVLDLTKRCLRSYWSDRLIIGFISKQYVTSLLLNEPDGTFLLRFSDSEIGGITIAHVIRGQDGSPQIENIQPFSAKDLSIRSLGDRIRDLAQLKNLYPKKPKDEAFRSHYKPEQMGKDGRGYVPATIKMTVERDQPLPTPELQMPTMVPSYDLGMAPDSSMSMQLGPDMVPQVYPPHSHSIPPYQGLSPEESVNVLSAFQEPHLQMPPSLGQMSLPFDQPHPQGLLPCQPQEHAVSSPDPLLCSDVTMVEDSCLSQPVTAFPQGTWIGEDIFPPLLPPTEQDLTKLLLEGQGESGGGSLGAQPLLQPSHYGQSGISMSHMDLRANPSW
Test: Fluorescence polarization (FP) binding assay, STAT6
Conditions: FP competition, 5 nM fluorescein-labeled tracer, 200 nM protein, PBS pH7.4; read-out: Binding STAT6
pKi: −log10 of the molar value.
MEASUREMENT LABEL: pKi

Answered cases to consult:
COMPOUND | pKi
CC(=O)N1CC[C@H]2CC[C@@H](C(=O)NCc3ccccc3)N2C(=O)[C@@H](NC(=O)c2cc3cc(C(F)(F)P(=O)(O)O)ccc3[nH]2)C1 | < 5.00
CC(C)(C)[C@H](NC(=O)c1cc2cc(C(F)(F)P(=O)(O)O)ccc2s1)C(=O)N1Cc2ccccc2C1C(=O)N1CCO[C@@H](c2ccccc2)C1 (stereo partly drawn) | 5.00 to 6.00
CC(C)(C)[C@H](NC(=O)c1cc2cc(C(F)(F)P(=O)(O)O)ccc2s1)C(=O)N1Cc2ccccc2CC1C(=O)N1CCC[C@H](c2ccccc2)C1 (stereo partly drawn) | 6.00 to 7.00

I'm curious: which pKi was measured for CCOC(=O)C1CCN(C(=O)[C@@H]2CCCN2C(=O)[C@@H](NC(=O)c2cc3cc(C(F)(F)P(=O)(O)O)ccc3s2)C(C)(C)C)CC1c1ccccc1 (stereo partly drawn) tested on STAT6 protein (Homo sapiens, UniProt P42226)? 5.00 to 6.00

I'm curious: which pKi was measured for "CC(C)(C)[C@H](NC(=O)c1cc2cc(C(F)(F)P(=O)(O)O)ccc2s1)C(=O)N1CCC[C@H]1C(=O)N1CCN(S(C)(=O)=O)[C@@H](c2ccccc2)C1" tested on STAT6 protein (Homo sapiens, UniProt P42226)? 5.00 to 6.00

I'm curious: which pKi was measured for "CC(C)(C)[C@H](NC(=O)c1cc2cc(C(F)(F)P(=O)(O)O)ccc2s1)C(=O)N1CCC[C@H]1C(=O)N[C@H]1CCc2ccccc2C1" tested on STAT6 protein (Homo sapiens, UniProt P42226)? 5.00 to 6.00
